Tested on: 377384-186-R-J1-PDC complex spheroid viability
Assay: Anticancer human tumor 377384-186-R-J1-PDC patient-derived pancreatic carcinoma cell line growth inhibition [RAS]
Settings: curve of first compound; second compound 0.00949 µM
Text: RAS pathway inhibitors in Combinations in Complex Spheroids A high-throughput screen of multi-cell type tumor spheroids was designed to identify active combinations of RAS pathway inhibitors and targeted small molecules. Complex spheroids include a stromal component modeled by human endothelial cells (HUVEC) and fibroblasts modeled by human mesenchymal stem cells (MSCs). […] Compounds. […] If the clinical Cmax for an agent had not been determined, the highest concentration tested was 10 microM. […]
ASSAY_METRIC: IC50 (nM)
Number in nM, nothing else.

CC(C)NCC(C(=O)N1CCN(c2ncnc3c2C(C)CC3O)CC1)c1ccc(Cl)cc1 (centres undefined) + CCn1c(-c2cccnc2C(C)OC)c2c3cc(ccc31)N1CCOC(CC(NC(=O)C(C(C)C)N(C)C(=O)C3(F)CCN(C(=O)C#CC(C)(C)N(C)C)CC3)C(=O)N3CCCC(N3)C(=O)OCC(C)(C)C2)C1: 2770

Specify measured IC50 for Nc1ccn(C2OC(CO)C(O)C2(F)F)c(=O)n1 (centres undefined) + CCn1c(-c2cccnc2C(C)OC)c2c3cc(ccc31)N1CCOC(CC(NC(=O)C(C(C)C)N(C)C(=O)C3(F)CCN(C(=O)C#CC(C)(C)N(C)C)CC3)C(=O)N3CCCC(N3)C(=O)OCC(C)(C)C2)C1 .
12.6

----------
Form field: viability, T/C (one value per entry).
Tested on: 377384-186-R-J1-PDC complex spheroid viability
Test: Anticancer human tumor 377384-186-R-J1-PDC cell line growth inhibition [RAS];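 also: spheroids exposed to compounds for seven days before readout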
Settings: second compound 0.316 µM; first compound 0.00949 µM; stronger effect = lower value
Source text: RAS pathway inhibitors in Combinations in Complex Spheroids A high-throughput screen of multi-cell type tumor spheroids was designed to identify active combinations of RAS pathway inhibitors and targeted small molecules. Complex spheroids include a stromal component modeled by human endothelial cells (HUVEC) and fibroblasts modeled by human mesenchymal stem cells (MSCs). […] Compounds. […] If the clinical Cmax for an agent had not been determined, the highest concentration tested was 10 microM. […]
Number in %, nothing else.

CC1(C)CCC(Nc2ncc(C(F)(F)F)c(-c3c[nH]c4c(P(C)(C)=O)c(C#N)ccc34)n2)CN1 (centres undefined) + C=CC(=O)N1CCN(c2nc(OCC3CCCN3C)nc3c(F)c(-c4nc(N)cc(C)c4C(F)(F)F)c(Cl)cc23)C(C)C1: 26.7

Specify measured viability, T/C for CC1(C)CCC(Nc2ncc(C(F)(F)F)c(-c3c[nH]c4c(P(C)(C)=O)c(C#N)ccc34)n2)CN1 (centres undefined) + C#Cc1c(F)ccc2cc(O)cc(-c3ncc4c(N5CC6CCC(C5)N6)nc(OCC56CCCN5CC(F)C6)nc4c3F)c12 .
2.68

Specify measured viability, T/C for CCc1c2c(nc3ccc(O)cc13)-c1cc3c(c(=O)n1C2)COC(=O)[C@]3(O)CC + C=CC(=O)N1CCN(c2nc(OCC3CCCN3C)nc3c(F)c(-c4nc(N)cc(C)c4C(F)(F)F)c(Cl)cc23)C(C)C1 .
17.6

Specify measured viability, T/C for CCc1c2c(nc3ccc(O)cc13)-c1cc3c(c(=O)n1C2)COC(=O)[C@]3(O)CC + C#Cc1c(F)ccc2cc(O)cc(-c3ncc4c(N5CC6CCC(C5)N6)nc(OCC56CCCN5CC(F)C6)nc4c3F)c12 .
2.87

----------
Test system: 377384-186-R-J1-PDC complex spheroid viability
Assay: Anticancer human tumor 377384-186-R-J1-PDC cell line growth inhibition [RAS];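 also: spheroids exposed to compounds for seven days before readout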
Details: second compound 0.003 µM; first compound 0.0316 µM; stronger effect = lower value
viability, T/C under 20% gets true, anything at or over 20% gets false.

CCC(CC)c1cc(NC2CCC(N)C2)n2nccc2n1 (stereo not given) + CCn1c(-c2cc(N3CCN(C)CC3)cnc2C(C)OC)c2c3cc(ccc31)-c1csc(n1)CC(NC(=O)C1CC1C)C(=O)N1CCCC(N1)C(=O)OCC(C)(C)C2: false
Nc1ccn(C2OC(CO)C(O)C2(F)F)c(=O)n1 (stereo not given) + CCn1c(-c2cccnc2C(C)OC)c2c3cc(ccc31)N1CCOC(CC(NC(=O)C(C(C)C)N(C)C(=O)C3(F)CCN(C(=O)C#CC(C)(C)N(C)C)CC3)C(=O)N3CCCC(N3)C(=O)OCC(C)(C)C2)C1: false

Lab note: confirm whether the reported viability, T/C for this compound is below 20%, equality not counting. compound: Nc1ccn(C2OC(CO)C(O)C2(F)F)c(=O)n1 (stereo not given) + CCn1c(-c2cc(N3CCN(C)CC3)cnc2C(C)OC)c2c3cc(ccc31)-c1csc(n1)CC(NC(=O)C1CC1C)C(=O)N1CCCC(N1)C(=O)OCC(C)(C)C2
true

Lab note: confirm whether the reported viability, T/C for this compound is below 20%, equality not counting. compound: Cc1nc(N2CCC3(CC2)COC(C)C3N)c(CO)nc1Sc1ccnc(N)c1Cl (stereo not given) + CCn1c(-c2cccnc2C(C)OC)c2c3cc(ccc31)N1CCOC(CC(NC(=O)C(C(C)C)N(C)C(=O)C3(F)CCN(C(=O)C#CC(C)(C)N(C)C)CC3)C(=O)N3CCCC(N3)C(=O)OCC(C)(C)C2)C1
false

Lab note: confirm whether the reported viability, T/C for this compound is below 20%, equality not counting. compound: C=CC(=O)N1CCN(c2nc(OCC3CCCN3C)nc3c(F)c(-c4nc(N)cc(C)c4C(F)(F)F)c(Cl)cc23)C(C)C1 (stereo not given) + CCn1c(-c2cc(N3CCN(C)CC3)cnc2C(C)OC)c2c3cc(ccc31)-c1csc(n1)CC(NC(=O)C1CC1C)C(=O)N1CCCC(N1)C(=O)OCC(C)(C)C2
false

Lab note: confirm whether the reported viability, T/C for this compound is below 20%, equality not counting. compound: Cc1nc(N2CCC3(CC2)COC(C)C3N)c(CO)nc1Sc1ccnc(N)c1Cl (stereo not given) + CCn1c(-c2cc(N3CCN(C)CC3)cnc2C(C)OC)c2c3cc(ccc31)-c1csc(n1)CC(NC(=O)C1CC1C)C(=O)N1CCCC(N1)C(=O)OCC(C)(C)C2
true

Lab note: confirm whether the reported viability, T/C for this compound is below 20%, equality not counting. compound: CC1(O)CCCC1n1c(=O)c(C(F)F)cc2cnc(NC3CCN(S(C)(=O)=O)CC3)nc21 (stereo not given) + CCn1c(-c2cccnc2C(C)OC)c2c3cc(ccc31)N1CCOC(CC(NC(=O)C(C(C)C)N(C)C(=O)C3(F)CCN(C(=O)C#CC(C)(C)N(C)C)CC3)C(=O)N3CCCC(N3)C(=O)OCC(C)(C)C2)C1
false

Lab note: confirm whether the reported viability, T/C for this compound is below 20%, equality not counting. compound: CCC(CC)c1cc(NC2CCC(N)C2)n2nccc2n1 (stereo not given) + CCn1c(-c2cccnc2C(C)OC)c2c3cc(ccc31)N1CCOC(CC(NC(=O)C(C(C)C)N(C)C(=O)C3(F)CCN(C(=O)C#CC(C)(C)N(C)C)CC3)C(=O)N3CCCC(N3)C(=O)OCC(C)(C)C2)C1
false

Lab note: confirm whether the reported viability, T/C for this compound is below 20%, equality not counting. compound: CC(Nc1ccc2c(c1)OCCn1cc(N3C(=O)OCC3C(F)F)nc1-2)C(N)=O (stereo not given) + CCn1c(-c2cccnc2C(C)OC)c2c3cc(ccc31)N1CCOC(CC(NC(=O)C(C(C)C)N(C)C(=O)C3(F)CCN(C(=O)C#CC(C)(C)N(C)C)CC3)C(=O)N3CCCC(N3)C(=O)OCC(C)(C)C2)C1
false

Lab note: confirm whether the reported viability, T/C for this compound is below 20%, equality not counting. compound: NC1c2ccccc2OC12CCN(c1cnc3c(N4CCCc5ncccc54)n[nH]c3n1)CC2 (stereo not given) + CCn1c(-c2cc(N3CCN(C)CC3)cnc2C(C)OC)c2c3cc(ccc31)-c1csc(n1)CC(NC(=O)C1CC1C)C(=O)N1CCCC(N1)C(=O)OCC(C)(C)C2
true

Lab note: confirm whether the reported viability, T/C for this compound is below 20%, equality not counting. compound: C[C@@H](NC(=O)c1ncnc(N)c1Cl)c1ncc(C(=O)Nc2cc(C(F)(F)F)c(Cl)cn2)s1 + CCn1c(-c2cc(N3CCN(C)CC3)cnc2C(C)OC)c2c3cc(ccc31)-c1csc(n1)CC(NC(=O)C1CC1C)C(=O)N1CCCC(N1)C(=O)OCC(C)(C)C2
false

Lab note: confirm whether the reported viability, T/C for this compound is below 20%, equality not counting. compound: O=C(c1ccc(F)c(F)c1Nc1ccc(I)cc1F)N1CC(O)([C@@H]2CCCCN2)C1 + CCn1c(-c2cc(N3CCN(C)CC3)cnc2C(C)OC)c2c3cc(ccc31)-c1csc(n1)CC(NC(=O)C1CC1C)C(=O)N1CCCC(N1)C(=O)OCC(C)(C)C2
true

Lab note: confirm whether the reported viability, T/C for this compound is below 20%, equality not counting. compound: C[C@@H](NC(=O)c1ncnc(N)c1Cl)c1ncc(C(=O)Nc2cc(C(F)(F)F)c(Cl)cn2)s1 + CCn1c(-c2cccnc2C(C)OC)c2c3cc(ccc31)N1CCOC(CC(NC(=O)C(C(C)C)N(C)C(=O)C3(F)CCN(C(=O)C#CC(C)(C)N(C)C)CC3)C(=O)N3CCCC(N3)C(=O)OCC(C)(C)C2)C1
false

Lab note: confirm whether the reported viability, T/C for this compound is below 20%, equality not counting. compound: CC(C)NCC(C(=O)N1CCN(c2ncnc3c2C(C)CC3O)CC1)c1ccc(Cl)cc1 (stereo not given) + CCn1c(-c2cccnc2C(C)OC)c2c3cc(ccc31)N1CCOC(CC(NC(=O)C(C(C)C)N(C)C(=O)C3(F)CCN(C(=O)C#CC(C)(C)N(C)C)CC3)C(=O)N3CCCC(N3)C(=O)OCC(C)(C)C2)C1
false

Lab note: confirm whether the reported viability, T/C for this compound is below 20%, equality not counting. compound: CC(=O)OC12COC1CC(O)C1(C)C(=O)C(O)C3=C(C)C(OC(=O)C(O)C(NC(=O)OC(C)(C)C)c4ccccc4)CC(O)(C(OC(=O)c4ccccc4)C21)C3(C)C (stereo not given) + CCn1c(-c2cccnc2C(C)OC)c2c3cc(ccc31)N1CCOC(CC(NC(=O)C(C(C)C)N(C)C(=O)C3(F)CCN(C(=O)C#CC(C)(C)N(C)C)CC3)C(=O)N3CCCC(N3)C(=O)OCC(C)(C)C2)C1
true
